Target: T1, human gastric inhibitory peptide receptor (GIPR) (human, UniProt P48546 22-466)
T1 sequence (looked up): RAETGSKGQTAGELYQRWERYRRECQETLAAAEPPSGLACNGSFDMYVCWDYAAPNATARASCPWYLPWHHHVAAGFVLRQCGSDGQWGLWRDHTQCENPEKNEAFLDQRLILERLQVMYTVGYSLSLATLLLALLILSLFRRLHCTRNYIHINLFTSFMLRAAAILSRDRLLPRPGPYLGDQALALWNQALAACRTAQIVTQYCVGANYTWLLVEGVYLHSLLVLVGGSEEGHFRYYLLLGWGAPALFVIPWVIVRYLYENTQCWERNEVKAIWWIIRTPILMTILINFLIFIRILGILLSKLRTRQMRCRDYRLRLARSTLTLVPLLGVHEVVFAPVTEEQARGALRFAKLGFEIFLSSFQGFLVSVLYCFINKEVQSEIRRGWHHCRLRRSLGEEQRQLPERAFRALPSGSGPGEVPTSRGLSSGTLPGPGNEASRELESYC
Assay: cell-based or functional assay
Numbered stars: 1 amine (or outer) side, 2 acyl side, 3 side chain; on linkers, the order of the positions; unused ones are H or OH. Square brackets hold non-standard residues; d marks the D form. Side chains are listed from the residue outwards. Ends that are not written are not given here. * marks the point of attachment. C18 diacid = O=C(O)CCCCCCCCCCCCCCCCC(=O)*; αMePhe(2-F) = C[C@](N)(Cc1ccccc1F)C(=O)O; γGlu = O=C(O)[C@H](CCC(=O)[*:2])N[*:1]; AEEA = NCCOCCOCC(=O)O; Aib = CC(C)(N)C(=O)O
Respond with fulfilled for hGIPR cAMP Rel EC50 values of 0.06 nM and above, not fulfilled for values below.

Consider the worked cases shown below.
QUERY: Could you please find out whether YXEGTXTSDVSIXLDEKAQXEFIXYLIEGGPSSGAPPPS (Y-Aib-EGT-αMeF(2F)-TSDVSI-αMeF-LDEK((2-[2-(2-Amino-ethoxy)-ethoxy]-acetyl)2-(γ-Glu)-CO-(CH2)18-CO2H)AQ-Aib-EFI-(D-Glu)-YLIEGGPSSGAPPPS-NH2) [Example 191] has hGIPR cAMP Rel EC50 that meets 0.06 nM or exceeds it?
RESULT: fulfilled

QUERY: hey, is hGIPR cAMP Rel EC50 for this one >= 0.06 nM? Y[Aib]EGT[αMePhe(2-F)]TSDYSIXLDEK([AEEA-AEEA-γGlu-C18 diacid])AQ[Aib]EFI[dE]YLIEGG-NH2 (not fully specified (residue 13); printed as Y-Aib-EGT-αMeF(2F)-TSDYSI-αMeF-LDEK((2-[2-(2-Amino-ethoxy)-ethoxy]-acetyl)2-(γ-Glu)-CO-(CH2)16-CO2H)AQ-Aib-EFI-(D-Glu)-YLIEGG-NH2) [Example 220]
RESULT: not fulfilled

QUERY: Decide: hGIPR cAMP Rel EC50 of Y[Aib]EGT[αMePhe(2-F)]TSDYSIXLDEKAQ[Aib]EFI[Aib]YLIEGGPSSGAPPPS-NH2 (not fully specified (residues 13, 17); printed as Y-Aib-EGT-αMeF(2F)-TSDYSI-αMeF-LDEK((2-[2-(2-Amino-ethoxy)-ethoxy]-acetyl)2-(γ-Glu)-CO-(CH2)18-CO2H)AQ-Aib-EFI-Aib-YLIEGGPSSGAPPPS-NH2) [Example 152] >= 0.06 nM?
RESULT: not fulfilled

***
QUERY: Is hGIPR cAMP Rel EC50 for YXEGTXTSDXSIXLDEKAQXTFIXYLIEGGPSSGAPPPS (Y-Aib-EGT-αMeF(2F)-TSD-Aib-SI-αMeF-LDEK((2-[2-(2-Amino-ethoxy)-ethoxy]-acetyl)2-(γ-Glu)-CO-(CH2)18-CO2H)AQ-Aib-TFI-(D-Glu)-YLIEGGPSSGAPPPS-NH2) [Example 160] at or above 0.06 nM?
RESULT: fulfilled

QUERY: I'd appreciate it if you could say whether YXEGTXTSDESILLDKKAQXAFIEYLIEGGPSSGAPPPS (Y-Aib-EGT-αMeF-TSDESILLDKK((2-[2-(2-Amino-ethoxy)-ethoxy]-acetyl)2-(γ-Glu)-CO-(CH2)18-CO2H)AQ-Aib-AFIEYLIEGGPSSGAPPPS-NH2) [Example 130] has hGIPR cAMP Rel EC50 at least equal to 0.06 nM.
RESULT: fulfilled
